All figures here come from the MegaScale stability set (Tsuboyama et al. 2023).

B1: r11_951_TrROS_Hall (parent)
chain: KKKYVIKVYFEDTGKEVEIEAESKEEALEAAKRLAEELGLKIKKVEIYP

Variants of: B1
Assay Protocol: folding stability dG (cDNA display proteolysis); higher = more stable
Conditions: PBS, room temperature
Parameter Measured: folding stability dG (kcal/mol)
Write the value in kcal/mol as a bare number.

folding stability dG reading for D12N : 4.42
